Taken from PubChem BioAssay.

Consider the following molecules; for each one, report its viability.
test: SK-BR-3 cell growth inhibitors, pilot screen, 24 h, human (AID 572); settings: SK-BR-3 viability, CellTiter-Glo luminescence, at 10 µM, hits give low values;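 also: compound exposure lasted between 18 and 24 h rather than exactly 24 h; 100% = carrier-treated control wells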
Give the value in % but do not write % after it.

-- ask // returns reported viability for input O=C(CCn1c(=O)sc2ccccc21)NC1=NCCS1
-- reply 84

-- ask Bench note: what viability did Cc1ccc2cc(CN(CC3CCCO3)S(=O)(=O)c3ccc4c(c3)OCCO4)c(=O)[nH]c2c1C (stereo not drawn) show?
-- reply 86.5

-- ask Sample COc1ccc(NC(=O)c2cc(C(C)C)on2)c(OC)c1 — what was its viability?
-- reply 93.5

-- ask Given the molecule CCC(=O)N(Cc1cc2c(C)ccc(C)c2[nH]c1=O)C1CCCCC1 , what is its reported viability?
-- reply 86

-- ask Item CC(=O)c1coc2ccc(OCC(=O)O)cc12 has what recorded viability?
-- reply 104

-- ask Can you look up the measured viability of Cc1ccc(F)cc1NC(=O)Cc1nn(C)c(=O)c2ccccc12 for me?
-- reply 96.5

-- ask What value of measured viability is listed for O=C1C(C=NCCCn2ccnc2)=C(O)c2ccccc21 ?
-- reply 83

-- ask Any idea what viability was measured for COC(=O)Nc1nc2c(C)cccc2s1 ?
-- reply 114

-- ask Quick one: viability of COc1cc(C2c3c(n[nH]c3C)C(=O)N2c2ccc(Br)cc2)ccc1O (stereo not drawn) ?
-- reply 95

-- ask What does the data say about its viability? Entry: Cc1cc(C(=O)OCC(=O)N2c3ccccc3CC2C)c(C)o1 (stereo not drawn)
-- reply 90.5

-- ask Consider the molecule CCS(=O)(=O)N1CCCC(C(=O)NCc2ccccc2Cl)C1 (stereo not drawn) and give its measured viability.
-- reply 90

-- ask Can you share its viability? I mean this molecule: COc1ccc(-n2c(COc3cccc(C)c3)nnc2SCC(=O)NCc2ccco2)cc1
-- reply 126

-- ask Look up viability for this molecule: COc1ccc2[nH]c(=O)c(CN(CCO)S(=O)(=O)c3ccc4c(c3)OCCO4)cc2c1
-- reply 85

-- ask What measured viability goes with COc1ccc(S(=O)(=O)N2CCSC2c2ccccc2)cc1 (stereo not drawn) ?
-- reply 82

-- ask Item under review: COc1ccc(CCNC(=O)c2ccncc2)cc1OC . Reported viability?
-- reply 107

-- ask Tell me the measured viability of CCOc1ccccc1C1NC(=O)NC(C)=C1C(=O)OC1CCCC1C (stereo not drawn) , please.
-- reply 94.5

-- ask Suppose we examine the molecule O=C(C1CCN(S(=O)(=O)Cc2ccccc2)CC1)N1CCN(c2ncccn2)CC1 ; what viability value has been reported?
-- reply 83

-- ask Consider the molecule shown here: CCOc1ccc(OCc2ccc(C(=O)Nc3cccc(C)n3)o2)cc1 What is its recorded viability?
-- reply 101

-- ask Given the entry Cc1nn(-c2ccccc2)c(C)c1C(=O)OCC(=O)c1c(N)n(CC(C)C)c(=O)n(C)c1=O , report its measured viability.
-- reply 104

-- ask // lookup viability for COc1cc(NC(=O)c2cc(OC)c(OC)c(OC)c2)c(OC)cc1NC(=O)CN1CCCCC1
-- reply 86.5

-- ask Which viability is reported for this molecule? CC(C)CCNC(=O)NC(=O)CN1C(=O)NC2(CCCCC2)C1=O
-- reply 90

-- ask For the molecule O=c1c2c(nc3nc(CCc4ccccc4)[nH]n13)CCC2 , what viability is on record?
-- reply 112

-- ask Would you kindly share the measured viability for C=CCn1c(SCC(=O)O)nnc1-c1cccc(Cl)c1 ?
-- reply 116
